Data provenance is patent US20210347727A1.

- STUDY_SYSTEM: Human Calpain 2/NS1 (Homo sapiens)
- Sequence (P17655 whole entry): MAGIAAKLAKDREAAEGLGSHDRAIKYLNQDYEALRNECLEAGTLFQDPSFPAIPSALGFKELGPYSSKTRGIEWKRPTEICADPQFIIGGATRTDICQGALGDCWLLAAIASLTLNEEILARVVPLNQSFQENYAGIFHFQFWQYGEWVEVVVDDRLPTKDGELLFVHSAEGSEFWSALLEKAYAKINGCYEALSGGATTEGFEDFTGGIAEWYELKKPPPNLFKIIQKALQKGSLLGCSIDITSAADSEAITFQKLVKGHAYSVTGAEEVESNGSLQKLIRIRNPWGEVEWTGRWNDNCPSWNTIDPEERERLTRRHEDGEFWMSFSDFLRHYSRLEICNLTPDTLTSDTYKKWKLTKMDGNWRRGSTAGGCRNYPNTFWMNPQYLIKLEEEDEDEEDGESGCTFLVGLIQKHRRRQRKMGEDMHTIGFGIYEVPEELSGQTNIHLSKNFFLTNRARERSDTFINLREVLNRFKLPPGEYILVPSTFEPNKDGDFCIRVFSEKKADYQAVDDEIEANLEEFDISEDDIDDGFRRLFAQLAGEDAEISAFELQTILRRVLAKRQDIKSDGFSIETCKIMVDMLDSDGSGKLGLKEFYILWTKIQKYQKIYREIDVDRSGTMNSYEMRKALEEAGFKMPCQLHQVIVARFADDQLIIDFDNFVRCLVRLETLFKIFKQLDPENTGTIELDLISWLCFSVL
- Sequence (P04632 whole entry partner): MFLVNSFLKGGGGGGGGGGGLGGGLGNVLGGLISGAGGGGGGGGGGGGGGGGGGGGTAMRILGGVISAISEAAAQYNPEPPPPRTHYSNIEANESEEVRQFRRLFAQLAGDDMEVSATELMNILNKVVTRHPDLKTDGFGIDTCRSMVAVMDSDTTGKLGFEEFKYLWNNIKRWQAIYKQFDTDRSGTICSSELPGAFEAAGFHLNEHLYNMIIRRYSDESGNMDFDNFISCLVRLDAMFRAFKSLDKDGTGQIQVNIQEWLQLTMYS
- ASSAY: Biochemical inhibition of calpain 2, continuous fluorescence (FRET substrate) assay
- CONDITIONS: mean; read-out: Human Calpain 2/NS1 1C50 [sic] (nM)_MEAN
OBSERVATION_TYPE: IC50

Solved entries (count: 2):
Cc1ccc(F)c(C(=O)N[C@@H](Cc2ccccc2)C(=O)C(N)=O)c1Cl [Compound 30] | < 3000 nM
NC(=O)C(=O)[C@H](Cc1ccccc1)NC(=O)c1c(F)cccc1F [Compound 15] | < 3000 nM

// below: IC50 requested for another compound
Query block: Would you please give the reported IC50 of NC(=O)C(=O)[C@H](Cc1ccccc1)NC(=O)c1c(F)cc(F)cc1F [Compound 3] with Human Calpain 2/NS1 (Homo sapiens)?
Result block: < 3000 nM
